# ASSAY SYSTEM: UniProt O70536
# Sequence (O70536 whole entry): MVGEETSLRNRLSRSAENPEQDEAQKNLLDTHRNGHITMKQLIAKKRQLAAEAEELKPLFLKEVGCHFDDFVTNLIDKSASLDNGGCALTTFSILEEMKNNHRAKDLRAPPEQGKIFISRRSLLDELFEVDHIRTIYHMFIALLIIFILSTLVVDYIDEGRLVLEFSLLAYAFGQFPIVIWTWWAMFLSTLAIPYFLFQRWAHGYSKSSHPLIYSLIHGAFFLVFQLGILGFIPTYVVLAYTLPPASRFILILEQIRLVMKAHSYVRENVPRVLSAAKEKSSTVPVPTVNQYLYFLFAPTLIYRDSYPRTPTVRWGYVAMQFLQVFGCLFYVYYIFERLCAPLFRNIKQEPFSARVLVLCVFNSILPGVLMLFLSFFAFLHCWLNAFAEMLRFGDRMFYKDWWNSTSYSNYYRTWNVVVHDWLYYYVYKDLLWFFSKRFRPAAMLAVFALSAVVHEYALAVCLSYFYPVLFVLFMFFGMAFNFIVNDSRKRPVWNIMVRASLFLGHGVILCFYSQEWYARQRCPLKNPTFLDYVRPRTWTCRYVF
# TEST SUMMARY: In vitro inhibition of ACYL CoA:Cholesterol Acyltransferase (ACAT) in rat hepatic microsomes was measured by using AIV assay
# Parameters: species or system Liver
MEASUREMENT TYPE: IC50 (µM)
Write the value in µM as a bare number.

Query: Tell us which IC50 value is on record for CCCCCCCN(CCCCCOC1=NC(S)=NC1(c1ccccc1)c1ccccc1)C(=O)NC(C)C
Response: 0.09

====

For each entry below, report its IC50 value.
# ASSAY SYSTEM: Sterol O-acyltransferase 1 (Rattus norvegicus, UniProt O70536)
# Sequence (O70536 whole entry): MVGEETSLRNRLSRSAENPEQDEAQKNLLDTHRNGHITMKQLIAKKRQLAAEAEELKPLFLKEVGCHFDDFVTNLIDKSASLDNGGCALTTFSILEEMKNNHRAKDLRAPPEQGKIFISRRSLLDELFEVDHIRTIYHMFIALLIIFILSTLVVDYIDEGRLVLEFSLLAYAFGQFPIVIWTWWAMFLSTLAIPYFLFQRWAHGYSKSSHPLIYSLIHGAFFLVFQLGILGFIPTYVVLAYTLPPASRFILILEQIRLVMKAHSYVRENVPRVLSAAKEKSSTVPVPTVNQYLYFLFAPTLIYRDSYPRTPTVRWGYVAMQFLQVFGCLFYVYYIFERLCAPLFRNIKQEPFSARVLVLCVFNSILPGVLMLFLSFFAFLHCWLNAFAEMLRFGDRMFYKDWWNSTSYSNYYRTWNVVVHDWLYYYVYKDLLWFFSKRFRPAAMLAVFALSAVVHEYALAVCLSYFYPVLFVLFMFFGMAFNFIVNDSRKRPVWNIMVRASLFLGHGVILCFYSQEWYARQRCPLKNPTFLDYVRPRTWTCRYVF
# TEST SUMMARY: In vitro inhibition of acyl coenzyme A:cholesterol acyltransferase (ACAT) in rat hepatic microsomes by using AIV assay.
# Design: species or system Liver
# PROTOCOL CONDITIONS: read-out: IC50

Query: Tell me IC50 of CCCCCCCN(CCCCCSc1[nH]cnc2nncc1-2)C(=O)NC(C)C when tested on Sterol O-acyltransferase 1 (Rattus norvegicus, UniProt O70536).
Response: 7.13 µM

Query: Tell me IC50 of CCCCCCN(CCCCCSc1nc2ccccc2o1)C(=O)Nc1ccc(F)cc1F when tested on Sterol O-acyltransferase 1 (Rattus norvegicus, UniProt O70536).
Response: 51 µM

Query: Tell me IC50 of CCCCCCCN(CCCCCSc1nc(O)c2ccccc2n1)C(=O)Nc1ccc(F)cc1F when tested on Sterol O-acyltransferase 1 (Rattus norvegicus, UniProt O70536).
Response: 4 µM

Query: Tell me IC50 of CCCCCCCN(CCCCCSc1nc(O)cc(Cc2ccccc2)n1)C(=O)NC(C)C when tested on Sterol O-acyltransferase 1 (Rattus norvegicus, UniProt O70536).
Response: 9.2 µM

Query: Tell me IC50 of CCCCCCCN(CCCCCSc1[nH]cnc2ncnc1-2)C(=O)Nc1ccc(F)cc1F when tested on Sterol O-acyltransferase 1 (Rattus norvegicus, UniProt O70536).
Response: 0.2 µM

====

# ASSAY SYSTEM: UniProtKB O70536
# TEST SUMMARY: In vitro inhibition of acyl coenzyme A:cholesterol acyltransferase (ACAT) in rat hepatic microsomes by using AIV assay.
# Parameters: species or system Liver
# PROTOCOL CONDITIONS: read-out: IC50
For each entry below, report its IC50 value.
Write the value in µM as a bare number.

Query: Tell me IC50 of CCCCCCN(CCCCCSc1nc2c[nH]cnc-2n1)C(=O)Nc1ccc(F)cc1F when tested on UniProtKB O70536.
Response: 0.86

Query: Tell me IC50 of CCCCCCCN(CCCCCSc1nnc(-c2ccccc2)c(-c2ccccc2)n1)C(=O)Nc1ccc(F)cc1F when tested on UniProtKB O70536.
Response: 0.44

Query: Tell me IC50 of CCCCCCCN(CCCCCSc1nnc(-c2ccccc2)n1-c1ccccc1)C(=O)Nc1ccc(F)cc1F when tested on UniProtKB O70536.
Response: 19

Query: Tell me IC50 of CCCCCCN(CCCCCSc1nc2ccc[nH]c-2n1)C(=O)NC(C)C when tested on UniProtKB O70536.
Response: 7.15

====

# ASSAY SYSTEM: Sterol O-acyltransferase 1 (Mus musculus)
# Sequence (Q61263 whole entry): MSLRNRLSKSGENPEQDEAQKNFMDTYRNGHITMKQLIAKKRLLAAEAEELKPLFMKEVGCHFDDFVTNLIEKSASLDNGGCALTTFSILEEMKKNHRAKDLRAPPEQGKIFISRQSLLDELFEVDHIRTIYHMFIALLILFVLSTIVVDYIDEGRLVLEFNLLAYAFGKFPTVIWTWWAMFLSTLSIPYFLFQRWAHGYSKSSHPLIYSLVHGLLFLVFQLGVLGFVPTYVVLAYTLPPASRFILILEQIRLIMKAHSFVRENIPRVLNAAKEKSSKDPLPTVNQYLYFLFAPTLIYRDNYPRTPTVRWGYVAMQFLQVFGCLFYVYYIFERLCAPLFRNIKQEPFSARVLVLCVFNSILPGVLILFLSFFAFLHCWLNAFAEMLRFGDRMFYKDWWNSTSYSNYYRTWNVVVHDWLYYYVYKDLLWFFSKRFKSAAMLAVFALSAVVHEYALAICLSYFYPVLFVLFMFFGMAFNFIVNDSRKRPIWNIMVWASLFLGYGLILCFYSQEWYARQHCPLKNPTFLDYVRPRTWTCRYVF
# TEST SUMMARY: Inhibition of acyl coenzyme A:cholesterol acyltransferase (ACAT) in J774 Macrophage cell culture by using J774 assay.
# Type: cell-based
For each entry below, report its log10(IC50) value.
Remember, log10 of IC50, in µM.

Query: Tell us which log10(IC50) value is on record for CCCCCCN(CCCCCSc1nc2c[nH]cnc-2n1)C(=O)NC(C)C
Response: 1.28

Query: Tell us which log10(IC50) value is on record for CCCCCCCN(CCCCCSc1nc(-c2ccccc2)c[nH]1)C(=O)Nc1ccc(F)cc1F
Response: 0.20

Query: Tell us which log10(IC50) value is on record for CCCCCCN(CCCCCSc1nc2ccccc2n1C)C(=O)Nc1ccc(F)cc1F
Response: 0.48

Query: Tell us which log10(IC50) value is on record for CCCCCCCN(CCCCCSc1nc[nH]n1)C(=O)Nc1ccc(F)cc1F
Response: 1.44

Query: Tell us which log10(IC50) value is on record for CCCCCCCN(CCCCCSc1nc(O)c2ccccc2n1)C(=O)Nc1ccc(F)cc1F
Response: 1.04

Query: Tell us which log10(IC50) value is on record for CCCCCCCN(CCCCCSc1nc(-c2ccccc2)c(-c2ccccc2)n1-c1ccccc1)C(=O)Nc1ccc(F)cc1F
Response: 1.74

====

# ASSAY SYSTEM: Sterol O-acyltransferase 1 (Mus musculus, UniProt Q61263)
# TEST SUMMARY: Inhibition of acyl coenzyme A:cholesterol acyltransferase (ACAT) in J774 Macrophage cell culture by using J774 assay.
# Type: cell-based
Binary label based on IC50 with cut-off 5 µM: below gives MET, not below gives NOT MET.

Query: Dear colleague, could you confirm whether IC50 of CCCCCCCN(CCCCCSC1N=C(c2ccccc2)c2ccccc2NC1=O)C(=O)NC(C)C (stereo not given) falls below 5 µM? Thanks.
Response: NOT MET

Query: Dear colleague, could you confirm whether IC50 of CCCCCCN(CCCCCSc1nc2ccccc2[nH]1)C(=O)Nc1ccc(F)cc1F falls below 5 µM? Thanks.
Response: MET

Query: Dear colleague, could you confirm whether IC50 of CCCCCCCN(CCCCCSC1=NC(=O)C(c2ccccc2)(c2ccccc2)N1)C(=O)NC(C)C falls below 5 µM? Thanks.
Response: MET

Query: Dear colleague, could you confirm whether IC50 of CCCCCCCN(CCCCCSc1[nH]cnc2nncc1-2)C(=O)NC(C)C falls below 5 µM? Thanks.
Response: MET

Query: Dear colleague, could you confirm whether IC50 of CCCCCCN(CCCCCSc1nc2ccccc2s1)C(=O)Nc1ccc(F)cc1F falls below 5 µM? Thanks.
Response: MET

Query: Dear colleague, could you confirm whether IC50 of CCCCCCCN(CCCCCSc1[nH]cnc2ncnc1-2)C(=O)NC(C)C falls below 5 µM? Thanks.
Response: MET

Query: Dear colleague, could you confirm whether IC50 of CCCCCCN(CCCCCSc1nc2cc(OCC)ccc2s1)C(=O)Nc1ccc(F)cc1F falls below 5 µM? Thanks.
Response: MET

Query: Dear colleague, could you confirm whether IC50 of CCCCCCCN(CCCCCSc1nnc(-c2ccccc2)c(-c2ccccc2)n1)C(=O)Nc1ccc(F)cc1F falls below 5 µM? Thanks.
Response: NOT MET

Query: Dear colleague, could you confirm whether IC50 of CCCCCCCN(CCCCCSc1nnc(-c2ccccc2)n1-c1ccccc1)C(=O)Nc1ccc(F)cc1F falls below 5 µM? Thanks.
Response: MET

Query: Dear colleague, could you confirm whether IC50 of CCCCCCCN(CCCCCSc1n[nH]c(-c2ccccc2)n1)C(=O)Nc1ccc(F)cc1F falls below 5 µM? Thanks.
Response: MET

Query: Dear colleague, could you confirm whether IC50 of CCCCCCN(CCCCCSc1nc2ccc[nH]c-2n1)C(=O)NC(C)C falls below 5 µM? Thanks.
Response: NOT MET

Query: Dear colleague, could you confirm whether IC50 of CCCCCCN(CCCCCSc1nc2ccccc2o1)C(=O)Nc1ccc(F)cc1F falls below 5 µM? Thanks.
Response: MET

Query: Dear colleague, could you confirm whether IC50 of CCCCCCCN(CCCCCSc1ncccn1)C(=O)Nc1ccc(F)cc1F falls below 5 µM? Thanks.
Response: MET

Query: Dear colleague, could you confirm whether IC50 of CCCCCCN(CCCCCSc1nc2c([nH]1)CCCC2)C(=O)Nc1ccc(F)cc1F falls below 5 µM? Thanks.
Response: MET

Query: Dear colleague, could you confirm whether IC50 of CCCCCCCN(CCCCCSc1[nH]cnc2ncnc1-2)C(=O)Nc1ccc(F)cc1F falls below 5 µM? Thanks.
Response: NOT MET

Query: Dear colleague, could you confirm whether IC50 of CCCCCCN(CCCCCSc1nc2c(=O)n(C)c(=O)n(C)c2[nH]1)C(=O)NC(C)C falls below 5 µM? Thanks.
Response: MET

Query: Dear colleague, could you confirm whether IC50 of CCCCCCCN(CCCCCSc1[nH]cnc2nncc1-2)C(=O)Nc1ccc(F)cc1F falls below 5 µM? Thanks.
Response: MET

Query: Dear colleague, could you confirm whether IC50 of CCCCCCN(CCCCCSc1nc2cc([N+](=O)[O-])ccc2[nH]1)C(=O)Nc1ccc(F)cc1F falls below 5 µM? Thanks.
Response: NOT MET

Query: Dear colleague, could you confirm whether IC50 of CCCCCCCN(CCCCCSc1nc(-c2ccccc2)cn1-c1ccccc1)C(=O)Nc1ccc(F)cc1F falls below 5 µM? Thanks.
Response: NOT MET

Query: Dear colleague, could you confirm whether IC50 of CCCCCCCN(CCCCCSc1nc(O)cc(Cc2ccccc2)n1)C(=O)NC(C)C falls below 5 µM? Thanks.
Response: NOT MET
